Target: T1, Perilipin epitope 5 peptide AKPSLLSRVGALTNT (SEQ ID NO. 332) (human, Biotin-PEG Spacer and GGSGGS Linker (SEQ ID NO. 438) at the N-terminus, or Biotin-PEG Spacer and AAAAA Linker (SEQ ID NO. 439) at the C-terminus)
T1 construct: Two biotinylated variants were used for selection and ELISA; On the peptide array it stood without biotin; also called target peptide
T1 peptide: AKPSLLSRVGALTNT
Assay: phage display selection and ELISA on biotinylated target peptide

- Binder: "Antibody No. 36 (antibody, V domains shown, human IgG1, lambda or kappa light chain; also called 447-B03) VH: EVQLVESGGGVVQPGRSLRLSCAASGFTFSSYAMHWVRQAPGKGLEWVAVISYDGSNKYYADSVKGRFTISRDNSKNTLYLQMNSLRAEDTAVYYCARDPLYGMDVWGQGTLVTVSS VL: QSVLTQPPSASGSPGQSVTISCTGTSSDVGNYNYVSWFQQHPGKAPKLMIYEVSKRPSGVPDRFSGSKSGNTASLTVSGLQAEDEADYYCASYADSNNLYVFGTGTKLTVL"
  binding result: "binds"
- Binder: "Antibody No. 18 (antibody, V domains shown, human IgG1, lambda or kappa light chain; also called 447-D03) VH: EVQLLESGGGLVQPGRSLRLACVASGFTFDDYGMHWVRQAPGKGLEWVAVISYDGSNKYYADSVKGRFTISRDNSKNTLYLQMNSLRAEDTAVYYCAKAYGEGGFDPWGQGTLVTVSS VL: QSALTQPASVSGSPGQSITISCTGTSSDVGGYNYVSWYQQHPGKAPKLMIYEVSNRPSGVSNRFSGSKSGNTASLTISGLQAEDEADYYCSSYTSSSTTWVFGGGTKVTVL"
  binding result: "binds"
- Binder: "Antibody No. 35 (antibody, V domains shown, human IgG1, lambda or kappa light chain; also called 447-E03) VH: QVQLVQSGAEVKKPGTTVKISCKVSGYSFTDYYMHWVQQAPGKGLEWMGLVDPEDGETLYAEKFQGRVTITVDTSTDTAYMELSSLRSEDTAVYYCAAEPQMVQGPSPPDYWGQGTLVTVSS VL: QSALTQPASVSGSPGQSITISCTGTSSDVGGYSYVSWYQQHPGKAPKLMIYDVSNRPSGVSNRFSGSKSGNTASLTISGLQAEDEADYYCSSYTSSSTLLFGGGTKLTVL"
  binding result: "binds"
